B1: TPR t1 (parent)
chain: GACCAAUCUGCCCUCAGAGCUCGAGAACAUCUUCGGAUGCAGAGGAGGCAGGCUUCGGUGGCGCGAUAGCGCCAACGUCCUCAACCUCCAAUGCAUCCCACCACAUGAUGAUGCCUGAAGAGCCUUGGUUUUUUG

Variants of: B1
Assay: polymerase ribozyme fitness, log enrichment relative to wild type (log ratio); higher = more active; in vitro selection for triplet polymerase activity
Tag: Fulfilled if measured polymerase ribozyme fitness (log ratio) is not below -4, Not fulfilled if it is.

{"mutant": "C15G C114U", "class": "Not fulfilled"}
{"mutant": "C20G C28U A37U A43U G45A U106A C123G", "class": "Not fulfilled"}
{"mutant": "A5C A43G C53U G63C G113C", "class": "Fulfilled"}
{"mutant": "C12U C53G A90C", "class": "Fulfilled"}
{"mutant": "A46U C82U", "class": "Fulfilled"}
{"mutant": "C70U C104U", "class": "Fulfilled"}
